Here the recorded MIC is given for each entry.
System: Salmonella typhi
Assay name: Antibacterial activity against Salmonella typhi after 8 to 12 hrs by colorimetric microdilution broth technique
Type: functional, Salmonella enterica subsp. enterica serovar Typhi
Conditions used: Salmonella enterica
A number alone suffices; assume µg/mL.

- Cpd smiles: "CCOc1ccc(/C=C/c2cccc[n+]2C)cc1.Cc1ccc(S(=O)(=O)[O-])cc1"
  MIC (µg/mL): 150
- Cpd smiles: "CN(C)c1ccc(/C=C/c2cccc[n+]2C)cc1.Cc1ccc(S(=O)(=O)[O-])cc1"
  MIC (µg/mL): 300
- Cpd smiles: "CN(C)c1ccc(/C=C/c2ccc3ccccc3[n+]2C)cc1.Nc1ccc(S(=O)(=O)[O-])cc1"
  MIC (µg/mL): 75
- Cpd smiles: "CN(C)c1ccc(/C=C/c2ccc3ccccc3[n+]2C)cc1.O=S(=O)([O-])c1ccc(Br)cc1"
  MIC (µg/mL): 300
- Cpd smiles: "CN(C)c1ccc(/C=C/c2cccc[n+]2C)cc1.O=S(=O)([O-])c1ccc(Cl)cc1"
  MIC (µg/mL): 300
- Cpd smiles: "CN(C)c1ccc(C=Cc2cccc[n+]2C)cc1.[I-]"
  MIC (µg/mL): 300
- Cpd smiles: "CCOc1ccc(/C=C/c2ccc3ccccc3[n+]2C)cc1.Nc1ccc(S(=O)(=O)[O-])cc1"
  MIC (µg/mL): 75
- Cpd smiles: "CN[C@H](CC(C)C)C(=O)N[C@H]1C(=O)N[C@@H](CC(N)=O)C(=O)N[C@H]2C(=O)N[C@H]3C(=O)N[C@H](C(=O)N[C@H](C(=O)O)c4cc(O)cc(O)c4-c4cc3ccc4O)[C@H](O)c3ccc(c(Cl)c3)Oc3cc2cc(c3O[C@@H]2O[C@H](CO)[C@@H](O)[C@H](O)[C@H]2O[C@H]2C[C@](C)(N)[C@H](O)[C@H](C)O2)Oc2ccc(cc2Cl)[C@H]1O"
  MIC (µg/mL): 2.34
- Cpd smiles: "CN(C)c1ccc(/C=C/c2ccc3ccccc3[n+]2C)cc1.Cc1ccc(S(=O)(=O)[O-])cc1"
  MIC (µg/mL): 300
- Cpd smiles: "CN(C)c1ccc(/C=C/c2ccc3ccccc3[n+]2C)cc1.O=S(=O)([O-])c1ccc(Cl)cc1"
  MIC (µg/mL): 300

Report MIC for CCOc1ccc(/C=C/c2cccc[n+]2C)cc1.O=S(=O)([O-])c1ccc(Br)cc1 300

Report MIC for CN(C)c1ccc(/C=C/c2ccc3ccccc3[n+]2C)cc1.[I-] 300

Report MIC for CN(C)c1ccc(/C=C/c2cccc[n+]2C)cc1.COc1ccc(S(=O)(=O)[O-])cc1 150

----------
System: Enterococcus faecalis
Assay name: Antibacterial activity against vancomycin-resistant Enterococcus faecalis ATCC 51299 after 8 to 12 hrs by colorimetric microdilution broth technique
Assay type: functional
Here the recorded MIC is given for each entry.

- Cpd smiles: "CN(C)c1ccc(/C=C/c2ccc3ccccc3[n+]2C)cc1.[I-]"
  Observed property: "MIC"
  Result: "4.68 µg/mL"
- Cpd smiles: "CN(C)c1ccc(/C=C/c2ccc3ccccc3[n+]2C)cc1.Cc1ccc(S(=O)(=O)[O-])cc1"
  Observed property: "MIC"
  Result: "2.34 µg/mL"
- Cpd smiles: "CN(C)c1ccc(/C=C/c2ccc3ccccc3[n+]2C)cc1.O=S(=O)([O-])c1ccc(Cl)cc1"
  Observed property: "MIC"
  Result: "2.34 µg/mL"
- Cpd smiles: "CCOc1ccc(/C=C/c2ccc3ccccc3[n+]2C)cc1.O=S(=O)([O-])c1ccc(Br)cc1"
  Observed property: "MIC"
  Result: "18.8 µg/mL"
- Cpd smiles: "CN[C@H](CC(C)C)C(=O)N[C@H]1C(=O)N[C@@H](CC(N)=O)C(=O)N[C@H]2C(=O)N[C@H]3C(=O)N[C@H](C(=O)N[C@H](C(=O)O)c4cc(O)cc(O)c4-c4cc3ccc4O)[C@H](O)c3ccc(c(Cl)c3)Oc3cc2cc(c3O[C@@H]2O[C@H](CO)[C@@H](O)[C@H](O)[C@H]2O[C@H]2C[C@](C)(N)[C@H](O)[C@H](C)O2)Oc2ccc(cc2Cl)[C@H]1O"
  Observed property: "MIC"
  Result: "2.34 µg/mL"

Specify MIC for CCOc1ccc(/C=C/c2cccc[n+]2C)cc1.Cc1ccc(S(=O)(=O)[O-])cc1 , system Enterococcus faecalis. 300 µg/mL
